Below is a list of entries, each paired with its recorded pIC50 value.
Target: ALPK1 (Homo sapiens (Human))
Sequence (Q96QP1 whole entry): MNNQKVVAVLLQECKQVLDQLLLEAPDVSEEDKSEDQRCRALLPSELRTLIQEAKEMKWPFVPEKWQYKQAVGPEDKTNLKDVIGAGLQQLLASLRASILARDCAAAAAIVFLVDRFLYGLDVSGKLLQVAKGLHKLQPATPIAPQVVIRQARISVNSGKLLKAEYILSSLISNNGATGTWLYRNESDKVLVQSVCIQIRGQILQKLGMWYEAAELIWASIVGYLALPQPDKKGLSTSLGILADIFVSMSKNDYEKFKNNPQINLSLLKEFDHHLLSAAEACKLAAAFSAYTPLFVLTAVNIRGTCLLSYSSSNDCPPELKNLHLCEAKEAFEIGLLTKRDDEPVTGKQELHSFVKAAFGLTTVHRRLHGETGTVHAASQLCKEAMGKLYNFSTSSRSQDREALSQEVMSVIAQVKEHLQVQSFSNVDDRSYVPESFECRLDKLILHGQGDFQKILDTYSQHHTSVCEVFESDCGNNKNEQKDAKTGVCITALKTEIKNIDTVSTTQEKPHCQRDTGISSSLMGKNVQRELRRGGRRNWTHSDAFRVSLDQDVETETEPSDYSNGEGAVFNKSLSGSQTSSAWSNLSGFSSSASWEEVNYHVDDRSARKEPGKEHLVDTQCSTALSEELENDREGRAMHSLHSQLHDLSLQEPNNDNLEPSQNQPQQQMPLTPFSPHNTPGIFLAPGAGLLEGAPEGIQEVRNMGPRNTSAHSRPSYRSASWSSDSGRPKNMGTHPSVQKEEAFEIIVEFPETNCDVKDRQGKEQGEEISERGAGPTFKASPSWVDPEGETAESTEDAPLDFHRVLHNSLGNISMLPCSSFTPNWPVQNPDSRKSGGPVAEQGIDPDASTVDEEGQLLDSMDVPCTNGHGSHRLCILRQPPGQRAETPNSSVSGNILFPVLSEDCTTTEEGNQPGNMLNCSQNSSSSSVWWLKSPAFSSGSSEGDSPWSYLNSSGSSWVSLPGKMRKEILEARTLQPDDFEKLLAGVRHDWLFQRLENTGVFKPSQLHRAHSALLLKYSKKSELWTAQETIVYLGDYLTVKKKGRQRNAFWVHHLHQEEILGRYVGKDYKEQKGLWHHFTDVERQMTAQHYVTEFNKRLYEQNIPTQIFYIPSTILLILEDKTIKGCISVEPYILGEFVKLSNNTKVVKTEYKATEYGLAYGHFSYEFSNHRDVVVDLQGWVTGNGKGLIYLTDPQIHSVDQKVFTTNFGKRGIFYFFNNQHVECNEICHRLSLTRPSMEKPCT
Experiment: ALPK1 in vitro kinase assay (HTRF of TIFA phosphorylation)
Format: biochemical
Settings: ADP-Heptose activated ALPK1, TIFA substrate, HTRF
In textbook form, pIC50 equals minus log to base ten of the concentration in mol/L.

# compound, experimentalSystem, testResult
data = [
    ("C#C[C@](C)(c1ccc(Cl)cc1)c1csc(NC(=O)c2ccc(N3CCNCC3)cc2)n1 (stereo in doubt) [B092]", "ALPK1 (Homo sapiens (Human))", 6.66),
    ("C#CC(C)(c1ccc(Cl)cc1)c1csc(NC(=O)c2ccc(N3CCNCC3)c(OC)c2)n1 (stereo not shown) [B066]", "ALPK1 (Homo sapiens (Human))", 7.54),
    ("C#CC(C)(c1ccc(Cl)cc1)c1csc(NC(=O)c2ccc(N3CCNCC3)cc2F)n1 (stereo not shown) [B065]", "ALPK1 (Homo sapiens (Human))", 7.47),
]

IN: Name the recorded pIC50 for C#C[C@@](C)(c1ccc(Cl)cc1)c1csc(NC(=O)c2ccc(N3CCNCC3)cc2)n1 (stereo in doubt) [B093] .
OUT: 7.37

Entry source: patent US20240226094A1
